System: filter-sterile supernatant of Rhodanobacter R179 (secreted peptidase(s))
Experiment: Peptide quantification by mass spectrometry after incubation in cell-free supernatant of Rhodanobacter R179
Format: in vitro ADME
Settings: R179 wt supernatant, XVM2 medium, incubation 1h, MS1 precursor area, replicate 2
Protocol: Elicitors were also supplemented into the medium prior to solidification at a final concentration of 1 µM. The flg22 ([…]) and AtPep1 ([…]) peptides were synthesized by EZbiolab. elf18^R179 (Ac-[…]) and elf18 (Ac-[…]) were synthesized by GenScript and EZbiolab, respectively. […] The samples were analysed using an EASY-nLC 1200 (Thermo Fisher) coupled to a QExactive Plus mass spectrometer (Thermo Fisher). […]
Where no end group is shown, it is not given here.
Readings of Log10(total_area_MS1) for the listed substances
Keep it simple and answer with nothing but the number.

Completed entries (count: 3):
>>> val("QRLSTGSRINSAKDDAAGLQIA [flg22]")
0
>>> val("Ac-SKEKFERTKPHVNVGTIG [elf18]")
0
>>> val("ATKVKAKQRGKEKVSSGRPGQHN [AtPep1]")
5.86

Reported Log10(total_area_MS1) for D-Y(SO3H)-GDPSANPKHDPGV-Hyp-Hyp-S [PSY1, root-growth-promoting sulfated PSY1 peptide] was 9.6971
